biological target: T1, human nerve growth factor (human, UniProt P01138 122-241); test: BIAcore SPR screen, Fab over immobilised human NGF; KD calculated from koff with kon 4e4 M-1s-1
T1 construct: Immobilised on CM5 chips for BIAcore, soluble in neuron survival assays; also called human NGF; hNGF
T1 sequence (P01138 122-241 limits assumed): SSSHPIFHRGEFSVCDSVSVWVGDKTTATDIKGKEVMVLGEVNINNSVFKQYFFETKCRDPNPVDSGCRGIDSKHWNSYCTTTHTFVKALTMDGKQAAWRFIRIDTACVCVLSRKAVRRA
The reader will find reported Kd values listed item by item below.
Answer in µM, number only, no unit symbol.

Reference set (2 entries):
heavy chain library clone H9 (Fab, V domains shown, See note of m8) VH: QVQLQESGPGLVKPSETLSLTCTVSGFSLIGYDVSWIRQPPGKGLEWIGIIWGDGTTDYNSSVKSRVTISKDTSKNQFSLKLSSVTAADTAVYYCARGGYYYGTSYYFDYWGQGTLVTVS VL: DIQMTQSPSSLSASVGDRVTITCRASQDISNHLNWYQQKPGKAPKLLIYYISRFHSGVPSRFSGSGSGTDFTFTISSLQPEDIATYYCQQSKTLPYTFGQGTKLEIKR
0.0102
light chain library clone L129 (Fab, V domains shown, paired with the CDR-grafted heavy chain; See note of m8) VH: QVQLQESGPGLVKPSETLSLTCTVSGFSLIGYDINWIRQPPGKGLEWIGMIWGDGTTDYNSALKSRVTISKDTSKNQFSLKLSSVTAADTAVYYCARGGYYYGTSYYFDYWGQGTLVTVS VL: DIQMTQSPSSLSASVGDRVTITCRASQSISNNLNWYQQKPGKAPKLLIYYTSRFHSGVPSRFSGSGSGTDFTFTISSLQPEDIATYYCQQSKTLPYTFGQGTKLEIKR
0.011

Then there is this binder:
I'd like to know its Kd. The binder in question is heavy chain library clone H227 (Fab, V domains shown, See note of m8) VH: QVQLQESGPGLVKPSETLSLTCTVSGFSLIGYDISWIRQPPGKGLEWIGQIWGDGTTDYNSSVKSRVTISKDTSKNQFSLKLSSVTAADTAVYYCARGGYYYGTSYYFDYWGQGTLVTVS VL: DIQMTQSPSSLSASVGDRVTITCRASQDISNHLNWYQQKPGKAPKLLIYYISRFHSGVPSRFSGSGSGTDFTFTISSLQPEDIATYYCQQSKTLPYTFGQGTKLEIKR
0.0135
